Where do the numbers come from? From paper PMC9482650.

Recorded measurements of pKd, one per entry
ASSAYED TARGET: GOPC, Q9HD26
TEST SUMMARY: holdup assay
Set-up: key: below the threshold = too weak to quantify, mostly under pKd 3.1 to 4
RECORDED CONDITIONS: plain residues with an end cap or a label only (N-terminal biotin on a linker: ado-ado)
Lab note: write the figure by itself, no unit.

[[record]]
binder = "KLQNPNQSVV [TYRP1, P17643]"
measurement = 3.72

[[record]]
binder = "KIEDVEITLV [FCHSD2, O94868]"
measurement = 4.09

[[record]]
binder = "ATKDKKITTV [EXOC4, Q96A65]"
measurement = 3.87


Now let's try a different one.
Return reported pKd. Input binder: THHRKIHTRV [ZNF599, Q96NL3] 4.67
